Test system: hypersecretion
assay.notes: Anti-secretory activity test (Shay et al)
Assay type: in vivo
condition.info: 10 mg/kg; read-out: Anti-secretory, % change in Vol.

compound.structure.string | change in vivo at 10 mg/kg
C[n+]1ccccc1SCc1ccccc1Cl | -39%
C[n+]1ccccc1SCc1cccc(Cl)c1 | -42%
C[n+]1ccccc1SCc1ccc(OCc2ccccc2)cc1 | -19%
C[n+]1ccccc1SCc1ccccc1F | -54%
C[n+]1ccccc1SCc1c(Cl)cccc1Cl | -35%
C[n+]1ccccc1SCCc1ccccc1 | -20%

###

Tested on: male spontaneously hypertensive rats
assay.notes: Antihypertensive activity, Procedure A: systolic pressure of spontaneously hypertensive rats
Format: in vivo
condition.info: 75 mg/kg orally
parameter: Antihypertensive activity (Procedure A)

compound.structure.string | experimental.value
C[n+]1ccccc1SCC(=O)c1ccccc1 | showed activity
C[n+]1ccccc1SCCc1ccccc1 | showed activity
C[n+]1ccccc1SCc1c(Cl)cccc1Cl | showed activity
C[n+]1ccccc1SCc1ccc(Cl)c(Cl)c1 | showed activity
